I'd appreciate it if you could supply pIC50 values for the items below.
# Measured Target: human hNET (Homo sapiens, UniProt P23975)
# Construct: expressed in transfected cells; host or cells: MDCK-Net6 (MDCK cells stably transfected with hNET)
# Sequence (P23975 whole entry): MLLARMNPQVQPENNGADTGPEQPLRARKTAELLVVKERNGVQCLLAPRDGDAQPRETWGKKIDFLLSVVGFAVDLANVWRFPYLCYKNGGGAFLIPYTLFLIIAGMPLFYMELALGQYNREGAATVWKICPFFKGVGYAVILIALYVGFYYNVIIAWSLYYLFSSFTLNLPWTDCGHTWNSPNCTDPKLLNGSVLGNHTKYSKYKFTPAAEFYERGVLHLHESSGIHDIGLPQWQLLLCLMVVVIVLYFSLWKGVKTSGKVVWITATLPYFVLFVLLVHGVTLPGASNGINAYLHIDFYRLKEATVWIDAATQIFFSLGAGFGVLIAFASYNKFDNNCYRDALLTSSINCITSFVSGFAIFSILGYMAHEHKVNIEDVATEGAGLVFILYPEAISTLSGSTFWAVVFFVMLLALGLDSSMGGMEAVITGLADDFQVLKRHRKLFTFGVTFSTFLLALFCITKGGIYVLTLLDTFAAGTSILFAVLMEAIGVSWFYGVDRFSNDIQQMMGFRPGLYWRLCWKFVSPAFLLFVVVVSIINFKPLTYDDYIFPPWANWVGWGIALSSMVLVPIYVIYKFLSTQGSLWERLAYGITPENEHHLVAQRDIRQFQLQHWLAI
# Assay Method Text: Functional norepinephrine reuptake assay, Procedure B (6,000 cells/well)
# Format: cell-based
# Measurement Setup: MDCK-Net6 cells, 6,000 cells/well, 16 nM 3H-norepinephrine; read-out: Procedure B hNET uptake IC50
Where a name gives a salt, the structure may show the parent alone.
Give bare numbers, as −log10 of the molar value.

Some molecules with known pIC50 results, for comparison:
{"Molecule": "CNCCC[C@H]1Cc2cc(F)ccc2N(c2ccccc2OC)S1(=O)=O (single isomer, unassigned)", "Reported Property": "pIC50", "Assay Value": 6.23}
{"Molecule": "CNCCCC1Cc2ccccc2N(c2ccccc2F)S1(=O)=O (stereo not shown) [Example 89]", "Reported Property": "pIC50", "Assay Value": 7.74}
{"Molecule": "CNCCCC1Cc2cc(F)ccc2N(c2cc(F)ccc2F)S1(=O)=O (racemic)", "Reported Property": "pIC50", "Assay Value": 7.51}

Please examine the following record next.
# input Requested read-out pIC50, target or system human hNET (Homo sapiens, UniProt P23975), entry CNCCC[C@H]1Oc2cc(F)ccc2N(c2ccccc2F)S1(=O)=O (single isomer, unassigned) [Example 131, Hydrochloride]
# output 7.51

---

# Measured Target: human hNET (Homo sapiens, UniProt P23975)
# Construct: expressed in transfected cells; host or cells: MDCK-Net6 (MDCK cells stably transfected with hNET)
# Assay Method Text: Functional norepinephrine reuptake assay, Procedure B (6,000 cells/well)
# Type: cell-based
# Measurement Setup: MDCK-Net6 cells, 6,000 cells/well, 16 nM 3H-norepinephrine; read-out: Procedure B hNET uptake IC50
Counter-ions that a name gives are not always drawn.
I'd appreciate it if you could supply pIC50 values for the items below.
One number for each entry, as −log10 of the molar value.

The following compounds have reported results that may help.
{"Compound": "CNCCCC1Cc2ccccc2N(c2ccccc2F)S1(=O)=O (centres unmarked) [Example 73, Hydrochloride]", "pIC50": 7.75}
{"Compound": "CNCCCC1Sc2ccccc2N(c2ccc(F)cc2)S1(=O)=O (centres unmarked) [Example 64, Hydrochloride]", "pIC50": 6.00}
{"Compound": "CNCCCC1Cc2ccccc2N(c2c(F)cccc2F)S1(=O)=O (racemic)", "pIC50": 8.00}
{"Compound": "CNCC[C@@H]1Oc2ccccc2N(c2ccccc2)S1(=O)=O (single isomer, unassigned)", "pIC50": 5.91}
{"Compound": "CNCC[C@@H](O)[C@H]1Cc2ccccc2N(c2ccccc2)S1(=O)=O (single isomer, unassigned)", "pIC50": 7.07}

Report pIC50 for each item below.
1. CNCCCC1Cc2cc(F)ccc2N(c2ccccc2Cl)S1(=O)=O (racemic)
2. CNCCCC1Cc2cc(F)ccc2N(c2ccc(C)cc2F)S1(=O)=O (racemic)
3. CNCCC[C@@H]1Cc2cc(Cl)ccc2N(c2ccccc2F)S1(=O)=O (single isomer, unassigned)
4. CNC[C@@H](O)C[C@H]1Oc2ccccc2N(c2ccccc2)S1(=O)=O (single isomer, unassigned)
5. O=S1(=O)C(CCN2CCCC2)Oc2ccccc2N1c1ccccc1 (centres unmarked)

# output
1: 6.89; 2: 7.29; 3: 7.37; 4: 7.11; 5: 5.79

# input So what's the measured pIC50 for this one? CNCCCC1Cc2cc(F)ccc2N(c2ccc(F)cc2F)S1(=O)=O (racemic)
# output 7.04
